# key: entry, value: growth AUC
tested on: Akkermansia muciniphila; assay: growth AUC relative to DMSO control (median of replicates) (fraction); higher = more growth (less inhibition), active = hit call of the paper; conditions: 20 µM; 24 h
Enter a number only.

// known answers, use as guide
Compound	growth AUC
C=CCc1ccc(OC)c(OC)c1	1.02
NC(=O)c1c(Cl)cccc1Cl	0.966
CC(C)OC(=O)N[C@H](C(=O)N[C@H](C)c1nc2ccc(F)cc2s1)C(C)C	1.17
CC(C)(C)[C@@H](O)[C@@H](Cc1ccc(Cl)cc1)n1cncn1 (mixture of isomers)	1.1

Task: # returns recorded growth AUC (system: Akkermansia muciniphila) for CCSc1nc(NC(C)C)nc(NC(C)C)n1
Result: 0.919
